Read-out: Keratin 19 (KRT19), KRT19 (gene 3880)
assay.procedure: LTEA_HepaRG_KRT19: Life Technologies and Expression Analysis (LTEA) Assay for Keratin 19 (KRT19) using HepaRG (AID 2283512)
run.parameters: mRNA level, 48 h; actives raise or lower the signal
The source made the active and inactive calls. The calls were made as follows: active = hit-call score of the fitted dose curve at least 0.9, where 1 is the maximum; inactive = score below 0.9.
Output constraint: value belongs to active, inactive

Consider the worked cases shown below.
CC(C)=CCCC(C)CCO (stereo not given) : inactive
CC(C)CCO : inactive

Task item: Record lookup: outcome of this test for "CCCCCCCCCCCCCCCO" ?
Reply: inactive

Task item: Can you look up the reported call for "CCN(C(=O)c1cc(C)cc(OC[C@H](C)Nc2ccncc2)c1)C(C)C" for me?
Reply: active

Task item: What did this assay record as the result for "COc1ccc2sc(C(=O)Nc3nnn[nH]3)c(OC(C)C)c2c1" ?
Reply: inactive

---

assay.procedure: BSK_LPS_PGE2: BioMAP Diversity Plus: LPS Assay for Prostaglandin E2 (PGE2) Biomarker Activity (AID 2283082);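 as to AC50: secreted prostaglandin E2 measured by ELISA in LPS-stimulated co-culture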
run.parameters: primary human HUVEC with PBMC; actives raise or lower the signal
The source made the active and inactive calls. How the source made its calls: active means hit-call score of the fitted dose curve at least 0.9, where 1 is the maximum; inactive means score below 0.9.
property.label: AC50

// worked examples, AC50 included
CC(O)CN(CCN(CC(C)O)CC(C)O)CC(C)O (centres undefined) : inactive
O=C(O)c1cccc(Oc2ccccc2)c1 : inactive
Cn1c(=O)c2c(ncn2C)n(C)c1=O : inactive
Clc1nc(Cl)c(Cl)c(Cl)c1Cl : 15.1 µM (active)
CCNc1ccccc1 : inactive
Nc1cccc(N)c1 : inactive
COc1cccc(-c2ccc(/C=C\CN3CCCCCC3)cc2Cl)c1 : inactive
O=c1n(CC2CO2)c(=O)n(CC2CO2)c(=O)n1CC1CO1 (centres undefined) : inactive

Task item: Recall and state the measured AC50 for "COC(=O)CC(=O)OC" .
Reply: inactive

Task item: Using known records, supply AC50 for "O=P(OC(CCl)CCl)(OC(CCl)CCl)OC(CCl)CCl"
Reply: inactive

Task item: Indicate the recorded AC50 value for this compound: "C=CCCCCCCCCC(=O)O"
Reply: 8.17 µM (active)

Task item: Using known records, supply AC50 for "CCC(C)(C)C(=O)O[C@H]1C[C@@H](C)C=C2C=C[C@H](C)[C@H](CC[C@@H]3C[C@@H](O)CC(=O)O3)[C@H]21"
Reply: inactive

Task item: Return value of AC50 for input "CC(C)CCCCCCOC(=O)c1ccc(C(=O)OCCCCCCC(C)C)c(C(=O)OCCCCCCC(C)C)c1" , no commentary.
Reply: inactive

Task item: Provide one value: measured AC50 of "CCOCCOCCOCCO"
Reply: inactive

Task item: Output measured AC50 for this item: "CC[C@H]1CC[C@H](NCc2cc3c(cc2OC)[C@H]2C[C@H]2C(=O)N3C)[C@H](c2ccccc2)N1"
Reply: inactive

---

subject.of.test: Collagenase 3 (Homo sapiens) (UniProt P45452)
assay.procedure: NVS_ENZ_hMMP13: NovaScreen (NVS) Enzymatic Assay for human Matrix Metalloproteinase-13 (MMP13) (AID 2283182)
Inconclusive results are not listed. Active and inactive are the calls of the source. How the source made its calls: active means hit-call score of the fitted dose curve at least 0.9, where 1 is the maximum; inconclusive means response in the unintended direction; inactive means score below 0.9.
Mark one answer only. Choices: class 1 for active, class 0 for inactive

Solved cases (2 shown):
CCc1cc(SCc2sc(-c3ccc(C(F)(F)F)cc3)nc2CN2CCN(c3ccc(OC)cc3)CC2)ccc1OCC(=O)O : class 1
CC(C)CCCCCCCOC(=O)CCCCC(=O)OCCCCCCCC(C)C : class 0

Task item: Call for entry CNS(=O)(=O)c1cc(C(=O)N2CCC(CCN3C4CCC3CC(n3c(C)nc5ccccc53)C4)(c3cccc(F)c3)CC2)c(Cl)cc1F (stereo not given) :
Reply: class 1

Task item: Lab log entry: "CC(C)(O)c1coc(S(=O)(=O)NC(=O)Nc2c3c(cc4c2CCC4)CCC3)c1" — outcome as called in the assay?
Reply: class 1

Task item: So what was the verdict on CCCCC(CC)COC(=O)c1ccc(C(=O)OCC(CC)CCCC)cc1 (stereo not given) in this test?
Reply: class 0

Taken from PubChem BioAssay (EPA / NIEHS).
